Tested on: johnsongrass
Experiment: Test C pre-/postemergence test
Type: in vivo, Sorghum halepense
Details: Postemergence, 250 g ai/ha; scale 0 to 100, 0 no effect, 100 complete control
ASSAY ENDPOINT: Plant response rating, Johnsongrass

INSERT INTO assay_data (compound, observed_value) VALUES
  ('Cn1nc(C(F)(F)F)c(C[S+]([O-])c2cccc[n+]2[O-])c1OC(F)F (stereo not drawn) [Compound 3]', 20),
  ('Cn1nc(C(F)(F)C(F)(F)F)c(C[S+]([O-])c2cccc[n+]2[O-])c1OCC(F)(F)F (stereo not drawn) [Compound 79]', 50),
  ('CCn1nc(C(F)(F)F)c(CS(=O)(=O)c2cc(C)cc[n+]2[O-])c1OCC(F)(F)F [Compound 64]', 0),
  ('[O-][n+]1cc(Cl)ccc1[S+]([O-])Cc1c(C(F)(F)F)nn(CC(F)(F)F)c1Cl (stereo not drawn) [Compound 47]', 85),
  ('CCn1nc(C(F)(F)F)c(C(C)S(=O)(=O)c2cccc[n+]2[O-])c1OCC(F)(F)F (stereo not drawn) [Compound 69]', 40),
  ('Cn1nc(C(F)(F)F)c(C[S+]([O-])c2ccc(Cl)c[n+]2[O-])c1OC(F)F (stereo not drawn) [Compound 6]', 35);

---

Tested on: corn
Experiment: Test C pre-/postemergence test
Format: in vivo, Zea mays
Details: preemergence, 125 g ai/ha; scale 0 (no effect) to 100 (complete control)
ASSAY ENDPOINT: Corn plant response rating

INSERT INTO assay_data (compound, system_under_test, assay_endpoint, observed_value) VALUES
  ('Cn1nc(C(F)(F)F)c(C[S+]([O-])c2cc(C(F)(F)F)cc[n+]2[O-])c1Cl (racemic) [Compound 34]', 'corn', 'Corn plant response rating', 5),
  ('Cc1cc[n+]([O-])c(S(=O)(=O)C(C)c2c(C(F)(F)F)nn(C)c2Cl)c1 (racemic) [Compound 14]', 'corn', 'Corn plant response rating', 60),
  ('Cn1nc(C(F)(F)F)c(C[S+]([O-])c2cc(C(C)(C)C)cc[n+]2[O-])c1OC(F)F (racemic) [Compound 24]', 'corn', 'Corn plant response rating', 90),
  ('CC(c1c(C(F)(F)F)nn(C)c1OCC(F)(F)F)S(=O)(=O)c1cccc[n+]1[O-] (racemic) [Compound 33]', 'corn', 'Corn plant response rating', 98),
  ('Cc1cc[n+]([O-])c([S+]([O-])Cc2c(C(F)(F)F)nn(C)c2OC(F)F)c1 (stereo not shown) [Compound 1]', 'corn', 'Corn plant response rating', 95),
  ('Cn1nc(C(F)(F)F)c(C[S+]([O-])c2ccc(Cl)c[n+]2[O-])c1OC(F)F (stereo not shown) [Compound 6]', 'corn', 'Corn plant response rating', 60),
  ('Cn1nc(C(F)(F)F)c(C(Cl)S(=O)(=O)c2cccc[n+]2[O-])c1Cl (stereo not shown) [Compound 12]', 'corn', 'Corn plant response rating', 0),
  ('Cc1cc[n+]([O-])c(S(=O)(=O)C(Cl)c2c(C(F)(F)F)nn(C)c2Cl)c1 (racemic) [Compound 22]', 'corn', 'Corn plant response rating', 30),
  ('Cn1nc(C(F)(F)F)c(CS(=O)(=O)c2cccc[n+]2[O-])c1Cl [Compound 9]', 'corn', 'Corn plant response rating', 98),
  ('Cn1nc(C(F)(F)F)c(CS(=O)(=O)c2cc(C(C)(C)C)cc[n+]2[O-])c1OC(F)F [Compound 25]', 'corn', 'Corn plant response rating', 60);
